Give measured binding signal for each item. Keep answers brief.
Tested target: OsWOX13 (Oryza sativa, UniProt Q5QMM3 1-267)
Sequence: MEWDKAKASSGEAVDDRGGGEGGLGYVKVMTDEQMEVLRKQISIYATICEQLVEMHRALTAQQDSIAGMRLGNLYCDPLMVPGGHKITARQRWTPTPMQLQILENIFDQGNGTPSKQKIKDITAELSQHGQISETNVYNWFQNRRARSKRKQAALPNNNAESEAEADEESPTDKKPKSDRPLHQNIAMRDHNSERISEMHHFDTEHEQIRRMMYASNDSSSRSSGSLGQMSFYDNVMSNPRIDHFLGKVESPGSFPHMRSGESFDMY
Assay summary: protein-binding microarray (RPBM); PBS, 2% BSA, 51.3 ng/ul salmon testes DNA, 50 uM zinc acetate, 200 nM TF, 25 C, 1 h; high values mean tight binding
Condition info: protein: recombinant; tags: N-terminal polyhistidine and DsRed monomer fusion (pET32a); label: CyDye5-dUTP incorporated in the synthesized complementary strand; 3' TTTTT single-stranded linker to array surface; dsDNA, one strand shown
Over roughly 35,000 sequences, “fluorescence intensity (a.u.)” has its median near 10,000; the highest 2% begin near 52,000. The sample holds the highest values, similar sequences and a random draw of the others, so the mix is not that of the screen.

AAACTTCATTTAGTAGATTGATTTTCTTAACCGAATATAGCGGAGTCACCTAGTGCAG: 9560 fluorescence intensity (a.u.)

For every item in the list below, what is its measured binding signal?
1. GAACTAATTGATACATTAGCCACTTGATGAGCTCCTCTCCCGGAGTCACCTAGTGCAG
2. AAATTAATTAATACAATATATTCCTGCATGCCCTGTATAACGGAGTCACCTAGTGCAG
3. ATGAGCCTAACCATTTCTAGTGTTACTTACTCCATTTCAGCGGAGTCACCTAGTGCAG

Solution:
["58600 fluorescence intensity (a.u.)", "23800 fluorescence intensity (a.u.)", "64200 fluorescence intensity (a.u.)"]

====

Tested target: OsWOX13 (Oryza sativa, UniProt Q5QMM3 1-267)
Sequence: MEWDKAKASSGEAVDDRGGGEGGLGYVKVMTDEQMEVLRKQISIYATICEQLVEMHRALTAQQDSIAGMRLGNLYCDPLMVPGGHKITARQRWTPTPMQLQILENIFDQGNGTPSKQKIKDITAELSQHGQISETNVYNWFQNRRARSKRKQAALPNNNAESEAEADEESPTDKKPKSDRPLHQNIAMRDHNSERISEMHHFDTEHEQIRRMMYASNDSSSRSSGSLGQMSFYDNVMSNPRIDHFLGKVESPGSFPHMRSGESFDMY
Assay summary: protein-binding microarray (RPBM); PBS, 2% BSA, 51.3 ng/ul salmon testes DNA, 50 uM zinc acetate, 200 nM TF, 25 C, 1 h; high values mean tight binding
Condition info: protein: recombinant; tags: N-terminal polyhistidine and DsRed monomer fusion (pET32a); label: CyDye5-dUTP incorporated in the synthesized complementary strand; 3' TTTTT single-stranded linker to array surface; dsDNA, one strand shown
Whole data set: some 35,000 sequences, median “fluorescence intensity (a.u.)” near 10,000, cut for the highest 2% near 52,000. For the sample, the highest values were picked, then their nearest neighbours and some sequences at random.
Readout: binding signal

Below, 5 sequences whose answers are already recorded.
GTCAATCATTGTTCTATGAGCTAGATGATAAAGATGACAACGGAGTCACCTAGTGCAG: 8180 fluorescence intensity (a.u.)
TTATATTAATTGGCTATTAGATTAGCTATAGATAAATTGGCGGAGTCACCTAGTGCAG: 60400 fluorescence intensity (a.u.)
TTTATGATTATATTCGTAATGCTACATAATTTGATATGATCGGAGTCACCTAGTGCAG: 28100 fluorescence intensity (a.u.)
TTTTATATTTTAATTAATTACATAATGTAAATATTTCTCACGGAGTCACCTAGTGCAG: 17100 fluorescence intensity (a.u.)
CAACTATTATATAAATTGGCTATTATATTAGCTATAGATGCGGAGTCACCTAGTGCAG: 11400 fluorescence intensity (a.u.)

Below: the item to evaluate.
Problem: State its binding signal on OsWOX13 (Oryza sativa, UniProt Q5QMM3 1-267): ATTAATGAACTGTGACATTTCCTTAATTTCATTTTGCTCTCGGAGTCACCTAGTGCAG
Solution: 23800 fluorescence intensity (a.u.)

====

Field: binding signal. Provide a value for each of the sequences that follow.
Tested target: OsWOX13 (Oryza sativa, UniProt Q5QMM3 1-267)
Sequence: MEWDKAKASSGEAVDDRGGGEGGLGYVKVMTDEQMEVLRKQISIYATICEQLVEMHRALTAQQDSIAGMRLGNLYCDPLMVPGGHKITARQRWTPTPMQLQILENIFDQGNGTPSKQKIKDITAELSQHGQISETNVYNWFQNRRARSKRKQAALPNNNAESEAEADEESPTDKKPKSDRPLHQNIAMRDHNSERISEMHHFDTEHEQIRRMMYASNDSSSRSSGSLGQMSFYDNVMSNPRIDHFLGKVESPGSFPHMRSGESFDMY
Assay summary: protein-binding microarray (RPBM); PBS, 2% BSA, 51.3 ng/ul salmon testes DNA, 50 uM zinc acetate, 200 nM TF, 25 C, 1 h; high values mean tight binding
Condition info: protein: recombinant; tags: N-terminal polyhistidine and DsRed monomer fusion (pET32a); label: CyDye5-dUTP incorporated in the synthesized complementary strand; 3' TTTTT single-stranded linker to array surface; dsDNA, one strand shown
Over roughly 35,000 sequences, “fluorescence intensity (a.u.)” has its median near 10,000; the highest 2% begin near 52,000. Shown is part of a subset that was picked to be rich in the highest values.

Please review the entries below; each comes with its answer.
ATTGCTGATTGAGCATGTAGACATTGCTAGTGGTAGTACGCGGAGTCACCTAGTGCAG: 58000 fluorescence intensity (a.u.)
ATTAAATTTTAAAATTTAATTTTAAATTGATTTTGATATTCGGAGTCACCTAGTGCAG: 42600 fluorescence intensity (a.u.)
CACCATGATTGATTGCTCCATGCACACACATTGAGACACGCGGAGTCACCTAGTGCAG: 59700 fluorescence intensity (a.u.)
TATTTAAATTCAAATTGAAATTCAAATTTAAATCGGATATCGGAGTCACCTAGTGCAG: 16800 fluorescence intensity (a.u.)

Would you mind giving binding signal for every sequence in the list below?
1. CAAATTTAAATTTGAATTATATCCGATTTAAATTTGAATTCGGAGTCACCTAGTGCAG
2. CTAATAACAAAACAAATTACAGATTTCGCCTGTAATATGCCGGAGTCACCTAGTGCAG

Solution:
1: 21800 fluorescence intensity (a.u.); 2: 9460 fluorescence intensity (a.u.)

====

Tested target: OsWOX13 (Oryza sativa, UniProt Q5QMM3 1-267)
Sequence: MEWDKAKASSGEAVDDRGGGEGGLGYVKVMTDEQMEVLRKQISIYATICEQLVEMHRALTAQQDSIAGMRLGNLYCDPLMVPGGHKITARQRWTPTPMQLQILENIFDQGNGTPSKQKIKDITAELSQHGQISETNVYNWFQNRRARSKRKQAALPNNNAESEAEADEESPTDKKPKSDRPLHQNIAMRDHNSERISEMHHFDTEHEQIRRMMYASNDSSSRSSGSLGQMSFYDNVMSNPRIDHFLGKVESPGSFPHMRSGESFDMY
Assay summary: protein-binding microarray (RPBM); PBS, 2% BSA, 51.3 ng/ul salmon testes DNA, 50 uM zinc acetate, 200 nM TF, 25 C, 1 h; high values mean tight binding
Condition info: protein: recombinant; tags: N-terminal polyhistidine and DsRed monomer fusion (pET32a); label: CyDye5-dUTP incorporated in the synthesized complementary strand; 3' TTTTT single-stranded linker to array surface; dsDNA, one strand shown
Over roughly 35,000 sequences, “fluorescence intensity (a.u.)” has its median near 10,000; the highest 2% begin near 52,000. The entries come from a sample that favours the highest values as a whole.
Readout: binding signal

CCGATGTTTGATTGTTCGTTTTATTTGAAAGCCTTTTATGCGGAGTCACCTAGTGCAG: 20800 fluorescence intensity (a.u.)
AGGCACGGATTGATGCATTAATTTGGTTGCAATGTAGATGCGGAGTCACCTAGTGCAG: 37500 fluorescence intensity (a.u.)
AGAGTTCTGATTGAATTTGAACAGAAGCGGTGCTTTTGGACGGAGTCACCTAGTGCAG: 38800 fluorescence intensity (a.u.)
TTACATTAGCAATTGATTGCTCTTATTTGACCATGATGTTCGGAGTCACCTAGTGCAG: 31500 fluorescence intensity (a.u.)
TAAACTCCAAGTTGATTATCCAACGAATCGTAGCCTCGAGCGGAGTCACCTAGTGCAG: 5690 fluorescence intensity (a.u.)

Lab note: each sequence below needs its binding signal filled in.
1. ATCTATCTATCTATCTATCTATCTATCTATCTATCTATCTCGGAGTCACCTAGTGCAG
2. CCCTTGTTTCTGTTTTGATTGCAACCTAAGAGACTCTTGACGGAGTCACCTAGTGCAG
3. ATGGACTATTAAATTGACTATAAATGATTTGGAGCTAGTACGGAGTCACCTAGTGCAG
4. ATAAATGGGCTATTAGATTGACTATAAATGATTTGGAGCCCGGAGTCACCTAGTGCAG
5. TATTGATTAAACATAATGGTCTCACAATATTTTAGTTACCCGGAGTCACCTAGTGCAG
6. TTTTACATGATTGGATGACAAAGCCTATTTCGTTTTGTTGCGGAGTCACCTAGTGCAG
7. TCTGATTGACGGTGTTTGCAAGCAGAGTTCCTCTTCTTGGCGGAGTCACCTAGTGCAG

Solution:
20600 fluorescence intensity (a.u.)
6270 fluorescence intensity (a.u.)
22200 fluorescence intensity (a.u.)
57100 fluorescence intensity (a.u.)
27300 fluorescence intensity (a.u.)
53100 fluorescence intensity (a.u.)
61500 fluorescence intensity (a.u.)

Give me binding signal for each of these sequences, listed below.
1. CTTGTCTTATTTGATTGTTGCATTTACATTTATGCAATTTCGGAGTCACCTAGTGCAG
2. TGTCTAATTGGTATCGTGAAGACTCTGAACCATTTCCATCCGGAGTCACCTAGTGCAG

Solution:
9350 fluorescence intensity (a.u.)
35200 fluorescence intensity (a.u.)
